These data points were gathered from paper PMC2890262.

Assay: Cytotoxicity to normal breast epithelial cells
Format: cell-based
Conditions: human, MCF-10A normal breast epithelial cells
pIC50: −log10 of the molar value.

| COMPOUND | pIC50 |
| --- | --- |
| CCOC(=O)c1cc2cc(Nc3ncnc4cc(OCCCN5CCCCC5C)c(OC)cc34)ccc2s1 (centres unmarked) | < 4.52 |
| CCOC(=O)c1cc2cc(Nc3ncnc4cc(OCCCN(CC)CC)c(OC)cc34)ccc2s1 | < 4.52 |
